Provenance of the data: paper PMC4490394

# method: Pharmacokinetic parameters in mice after 7 days oral dosing
# Type: in vivo
# reported conditions: male, BALB/c or Balb/cOlaHsd nude, mouse, plasma, 50 mg/kg bid oral, read-out: T 1/2 (plasma half-life) (converted)
property: half-life (min)
Respond with the bare value in min.

Input line: Can you share its half-life? I mean this molecule: CC(O)c1cc(C(=O)N[C@@H](C)Cn2ccc(-c3ccc(C#N)c(Cl)c3)n2)[nH]n1 (stereo partly shown)
Output line: 96

###

# Test system: VCaP cells
# method: VCaP proliferation assay (WST-1)
# Assay type: cell-based
# reported conditions: Homo sapiens, 96 h, read-out: IC50, androgen-induced VCaP cell proliferation
property: pIC50
Scale for pIC50: -log10 of concentration given in mol/L; no unit attached.

Input line: GET /values?readout=pIC50&system=VCaP cells&item= CNC(=O)c1ccc(N2C(=S)N(c3cnc(C#N)c(C(F)(F)F)c3)C(=O)C23CCC3)cc1F [ARN-509, reference compound]
Output line: 6.38

###

# method: Brain penetrance, brain/plasma ratio from AUC0-24
# Format: in vivo
# reported conditions: male, BALB/c or Balb/cOlaHsd nude, mouse, mice, single oral dose of 10 mg/kg, based on AUC0–24
property: Kp
Format: numeric value only, no unit, no commentary.

Input line: What does the record list as Kp for CNC(=O)c1ccc(N2C(=S)N(c3cnc(C#N)c(C(F)(F)F)c3)C(=O)C23CCC3)cc1F [ARN-509, reference compound] ?
Output line: 0.62

###

# method: Pharmacokinetic parameters in mice after 7 days oral dosing
# Format: in vivo
# reported conditions: male, BALB/c or Balb/cOlaHsd nude, mouse, plasma, 20 mg/kg qd oral, read-out: AUC24
property: AUC (µg·h/mL)
Lab book: enter the figure in µg·h/mL, no units written.

Input line: I'd like to know its AUC. The molecule in question is CNC(=O)c1ccc(N2C(=S)N(c3ccc(C#N)c(C(F)(F)F)c3)C(=O)C2(C)C)cc1F [Enzalutamide, enzalutamide, reference compound]
Output line: 479
